# Tested on: Escherichia coli TOP10;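 further: peptides expressed intracellularly from a pBAD plasmid library in pooled LB shake-flask culture, induced with 0.3% L-arabinose, DNA abundance read by NGS, three biological replicates, DESeq2 with apeglm shrinkage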
# Procedure summary: shrunken log2 fold change of peptide-encoding DNA abundance (4.5 h post-induction vs induction); higher = less antimicrobial activity (less host growth inhibition)
# Settings: time post-induction: 4.5 h; library: site-saturation at positions 5, 18, 19, 20
Please use Yes whenever shrunken log2 fold change is not below 0.08, and No whenever it is.

| Chain sequence | Assigned category |
| --- | --- |
| RRIRFRPPRLPRPRPRPGWRPRP | Yes |
| RRIRERPPRLPRPRPRPDTPPRP | No |
| RRIRWRPPRLPRPRPRPEPRPRP | Yes |
| RRIRIRPPRLPRPRPRPNHHPRP | No |
| RRIRFRPPRLPRPRPRPEFNPRP | No |

Data request: # check: shrunken log2 fold change of RRIRWRPPRLPRPRPRPYLRPRP is greater than or equal to 0.08
Data returned: No

Data request: Would you say RRIRKRPPRLPRPRPRPDKKPRP shows shrunken log2 fold change at minimum 0.08?
Data returned: No

Data request: Can RRIRGRPPRLPRPRPRPFNKPRP be said to have shrunken log2 fold change at or above 0.08?
Data returned: No
